Listed next: entries and their corresponding Mean normalized OD.
Target: T1, full-length trimeric SARS-CoV-2 Spike protein (Spike-H6) (SARS-CoV-2, N-glycosylated (22 N-glycosylation sites))
T1 construct: also called trimeric Spike; full-length Spike-H6
Test: ELISA screen
assay endpoint: Mean normalized OD (OD)

INSERT INTO measurements (binder, assay_endpoint, measured_value) VALUES
  ('Siglec1 CRD-mouse IgG2a-Fc fusion protein (Fc fusion) TWGVSSPKNVQGLSGSCLLIPCIFSYPADVPVSNGITAIWYYDYSGKRQVVIHSGDPKLVDKRFRGRAELMGNMDHKVCNLLLKDLKPEDSGTYNFRFEISDSNRWLDVKGTTVTVTGGGSGGGSGGGS', 'Mean normalized OD', 0),
  ('Cd69 CRD-mouse IgG2a-Fc fusion protein (Fc fusion) YKRTCYFFSTTTKSWALAQRSCSEDAATLAVIDSEKDMTFLKRYSGELEHWIGLKNEANQTWKWANGKEFNSWFNLTGSGRCVSVNHKNVTAVDCEANFHWVCSGGGSGGGSGGGS', 'Mean normalized OD', 0.001),
  ('Mrc1_8 CRD-mouse IgG2a-Fc fusion protein (Fc fusion) FYGHCYYFESSFTRSWGQASLECLRMGASLVSIETAAESSFLSYRVEPLKSKTNFWIGMFRNVEGKWLWLNDNPVSFVNWKTGDPSGERNDCVVLASSSGLWNNIHCSSYKGFICKGGGSGGGSGGGS', 'Mean normalized OD', -0.057),
  ('Mrc2_6 CRD-mouse IgG2a-Fc fusion protein (Fc fusion) FLNKCFRIQGQDPQDRVKWSEAQFSCEQQEAQLVTIANPLEQAFITASLPNVTFDLWIGLHASQRDFQWIEQEPLLYTNWAPGEPSGPSPAPSGTKPTSCAVILHSPSAHFTGRWDDRSCTEETHGFICGGGSGGGSGGGS', 'Mean normalized OD', 0.011);
